test: gradient 5% acetonitrile 3 min, to 50% in 2 min, to 85% in 15 min, held 3 min, 100 µL/min; details: column: Zorbax Extend-C18 2.1 x 50 mm; eluents: water / acetonitrile, 0.1% formic acid
Would you kindly list RP-LC retention time for each of these compounds?
Entry rule: numbers only, all in s.

Query: Reported RP-LC retention time for O=C(CN1C(=O)CCCc2ccccc21)N1CCN(c2ccc(Cl)cc2)CC1 : what is it?
Response: 944

Query: Quick one: RP-LC retention time for Cc1ccccc1Cn1cc(-c2ccncc2)cc1C(=O)N1CCOCC1 ?
Response: 621

Query: Quick one: RP-LC retention time of CCc1ccc(C2=C(C)C(N3CCC(C(=O)NC)CC3)=NS2(=O)=O)cc1 ?
Response: 738

Query: Can you share its RP-LC retention time? I mean this compound: Cc1cccc(-c2ncccc2CNS(=O)(=O)c2cc(F)ccc2C)c1
Response: 774

Query: What RP-LC retention time value was documented for this compound, CCOC(=O)c1ccccc1NC(=O)NCC(c1cccnc1)c1cn(C)c2ccccc12 (stereo not given) ?
Response: 824

Query: Which RP-LC retention time value is on record for CC(C)(C)c1cc(NC(=O)CSCc2ccccc2)n(CCO)n1 ?
Response: 772

Query: For the compound shown here, COc1ccc(Cl)cc1NC(=O)Nc1ccc2c(c1)CN(C(=O)C1CC1)CC2 , give the reported RP-LC retention time.
Response: 871

Query: For the compound Cc1ccc(NC(=O)Cn2cnc3c(c2=O)CCCC3)cc1 , what RP-LC retention time is on record?
Response: 710

Query: Could you share which RP-LC retention time value was measured for CCN1CCC(N(Cc2ccc3c(c2)OCO3)C(=O)Nc2ccc(OC)cc2)CC1 ?
Response: 641

Query: Returns the measured RP-LC retention time for the input compound. Input: CCCNC(=O)c1cc(-c2ccc(F)cc2)cn1C
Response: 930
